# Tested on: Alternaria solani
# Assay name: Microtest against early blight caused by Alternaria solani (Alteso)
# Assay type: cell-based
# Settings: Alternaria solani, 168 h; solo product, 16 ppm; read-out: Observed efficacy
Measure name: inhibition of growth at 16 ppm (%)
Form entry: value (%) — number only.

# count of solved cases: 2
Request the reported inhibition of growth at 16 ppm associated with COC(=O)Nc1nc2ccccc2[nH]1 [II-8, carbendazim, reference compound]
10

Request the reported inhibition of growth at 16 ppm associated with CCN(Cc1ccc(Cl)nc1)/C(=C/[N+](=O)[O-])NC
2

Others:
Given the compound Cc1ccc(-c2c(Cl)nc(C#N)n2S(=O)(=O)N(C)C)cc1 [II-12, cyazofamid, reference compound] , what is its reported inhibition of growth at 16 ppm?
35

Consider the compound shown here: CCOC(=O)C1CC(=O)C(=C(O)C2CC2)C(=O)C1 (stereo not shown) [II-3a, trinexapac-ethyl, reference compound] What is its recorded inhibition of growth at 16 ppm?
27

---

Listed here are molecules together with their documented inhibition of growth at 4 ppm.
# System: Botrytis cinerea
# Assay name: Microtiterplate test against the grey mold Botrytis cinerea (Botrci)
# Type: cell-based
# Settings: Botrytis cinerea, 168 h; solo product, 4 ppm; read-out: Observed efficacy
Note: a bare number is incomplete; add the unit.

Example molecules with recorded inhibition of growth at 4 ppm:
For the molecule CON=C(C(=O)OC)c1ccccc1CON=C(C)c1cccc(C(F)(F)F)c1 [II-92, trifloxystrobin, reference compound] , what inhibition of growth at 4 ppm is on record?
2%

Given the entry COC(=O)N(OC)c1ccccc1COc1ccn(-c2ccc(Cl)cc2)n1 [II-66, pyraclostrobin, reference compound] , report its measured inhibition of growth at 4 ppm.
29%

Param item = N#Cc1c(Cl)c(Cl)c(Cl)c(C#N)c1Cl [II-11, chlorothalonil, reference compound] ; retrieve measured inhibition of growth at 4 ppm.
41%

What does the data say about its inhibition of growth at 4 ppm? Entry: CCOC(=O)C1CC(=O)C(=C(O)C2CC2)C(=O)C1 (centres unmarked) [II-3a, trinexapac-ethyl, reference compound]
7%

Consider the record given below.
Can you look up the measured inhibition of growth at 4 ppm of CO/N=C(/C1=NOCCO1)c1ccccc1Oc1ncnc(Oc2ccccc2Cl)c1F [II-37, fluoxastrobin, reference compound] for me?
10%

---

Listing of entries alongside the reported inhibition of growth at 0.004 ppm.
# Tested on: Alternaria solani
# Assay name: Microtest against early blight caused by Alternaria solani (Alteso)
# Format: cell-based
# Settings: Alternaria solani, 168 h; solo product, 0.004 ppm; read-out: Observed efficacy
Numbers only; they are read as %.

Examples from the recorded data:
I would be grateful if you could share the reported inhibition of growth at 0.004 ppm for CC(C)C(O)(Cn1cncn1)c1ccc(Oc2ccc(Cl)cc2)cc1Cl (centres unmarked) .
0

What inhibition of growth at 0.004 ppm value was documented for this molecule, CON=C(C(=O)OC)c1ccccc1CON=C(C)c1cccc(C(F)(F)F)c1 [II-92, trifloxystrobin, reference compound] ?
7

Give the measured inhibition of growth at 0.004 ppm of O=C(Nc1ccccc1-c1ccc(Cl)cc1)c1cccnc1Cl [II-7, boscalid, reference compound] .
6

Which measured inhibition of growth at 0.004 ppm value corresponds to CC(O)(Cn1cncn1)c1ccc(Oc2ccc(F)cc2)cc1Cl (centres unmarked) ?
0

So what's the measured inhibition of growth at 0.004 ppm for this one? COC(C)(Cn1cncn1)c1ccc(Oc2ccc(Cl)cc2)cc1Cl (centres unmarked)
0

***
May I ask what inhibition of growth at 0.004 ppm has been recorded for CCC(Cn1cncn1)(OC)c1ccc(Oc2ccc(Cl)cc2)cc1Cl (centres unmarked) ?
5

So what's the measured inhibition of growth at 0.004 ppm for this one? COC(=O)N(OC)c1ccccc1COc1ccn(-c2ccc(Cl)cc2)n1 [II-66, pyraclostrobin, reference compound]
8

Field request: inhibition of growth at 0.004 ppm | item: COCC(O)(Cn1cncn1)c1ccc(Oc2ccc(F)cc2)cc1Cl (centres unmarked)
0

---

# Test system: Phytophthora infestans
# Assay name: microbe, parasite or virus in culture
# Format: cell-based
# Settings: Phytophthora infestans, 168 h, read-out: Observed efficacy
Measure name: inhibition of growth at 63 ppm (%)
Answer in %, number only, no unit symbol.

Below, 3 compounds whose answers are already recorded.
What value of inhibition of growth at 63 ppm has been recorded for this entry: CC(O)(Cn1cncn1)c1ccc(Oc2ccc(F)cc2)cc1Cl (stereo not shown)
19

Given the compound CCC(Cn1cncn1)(OC)c1ccc(Oc2ccc(Cl)cc2)cc1Cl (stereo not shown) , what is its reported inhibition of growth at 63 ppm?
29

Reported inhibition of growth at 63 ppm, compound COCC(O)(Cn1cncn1)c1ccc(Oc2ccc(F)cc2)cc1Cl (stereo not shown) : ____
31

Next:
Bench note: what inhibition of growth at 63 ppm did CCCC(Cn1cncn1)(OC)c1ccc(Oc2ccc(Cl)cc2)cc1Cl (stereo not shown) show?
41

---

# Tested on: Pyricularia oryzae
# Assay name: microbe, parasite or virus in culture
# Format: cell-based
# Settings: Pyricularia oryzae, 168 h, read-out: Observed efficacy
Each item that follows carries a reported inhibition of growth at 16 ppm.
Could you write the number and then its unit?

Look over these answered cases.
inhibition of growth at 16 ppm lookup needed for N#Cc1nn(-c2c(Cl)cc(C(F)(F)F)cc2Cl)c(N)c1[S+]([O-])C(F)(F)F (stereo not shown) [II-20c, fipronil, reference compound] , thanks.
8%

Query: inhibition of growth at 16 ppm; subject: CCN(Cc1ccc(Cl)nc1)/C(=C/[N+](=O)[O-])NC [Nitenpyram]
0%

For the molecule shown here, CCOC(=O)C1CC(=O)C(=C(O)C2CC2)C(=O)C1 (stereo not shown) [II-3a, trinexapac-ethyl, reference compound] , give the reported inhibition of growth at 16 ppm.
21%

Proceed to the following item.
State the recorded inhibition of growth at 16 ppm for this entry: O=C(Nc1ccccc1-c1ccc(Cl)cc1)c1cccnc1Cl [II-7, boscalid, reference compound]
2%

---

Reported Observed efficacy by item:
# Tested on: Pyricularia oryzae
# Assay name: microbe, parasite or virus in culture
# Format: cell-based
# Settings: solo product, 4 ppm
Output spec: single numeric token, no unit.

What does the data say about its Observed efficacy? Entry: CCC(=O)C1=C([O-])CC(C(=O)[O-])CC1=O.[Ca+2] (centres unmarked) [Prohexadion-ca]
2

What value of Observed efficacy has been recorded for this entry: Cc1ccc(C(C)NC(=O)[C@@H](NC(=O)OC(C)C)C(C)C)cc1 (some centres unmarked) [II-51, iprovalicarb, reference compound]
0

Recorded Observed efficacy of C[N+]1(C)CCCCC1.[Cl-] [Mepiquat-cl] , please.
1

Which Observed efficacy is reported for this compound? CC1(C)CC/C(=C\c2ccc(Cl)cc2)C1(O)Cn1cncn1 (centres unmarked) [Triticonazol]
59

Now examine the next entry.
// Observed efficacy lookup, key: OC(Cc1ccccc1Cl)(Cn1nc[nH]c1=S)C1(Cl)CC1 (centres unmarked) [Prothioconazol]
23

---

# Tested on: Botrytis cinerea
# Assay name: Microtiterplate test against the grey mold Botrytis cinerea (Botrci)
# Type: cell-based
# Settings: Botrytis cinerea, 168 h; solo product, 0.063 ppm; read-out: Observed efficacy
Entries and their inhibition of growth at […] values follow.
Output spec: scalar in %, unitless text.

// below: answered molecules
Which measured inhibition of growth at […] belongs to CC(C)C(O)(Cn1cncn1)c1ccc(Oc2ccc(Cl)cc2)cc1Cl (centres unmarked) , tested on Botrytis cinerea?
29

What measured inhibition of growth at […] is associated with C#CCC(O)(Cn1cncn1)c1ccc(Oc2ccc(Cl)cc2)cc1Cl (centres unmarked) on Botrytis cinerea?
23

Recorded inhibition of growth at […] for COCC(O)(Cn1cncn1)c1ccc(Oc2ccc(F)cc2)cc1Cl (centres unmarked) with Botrytis cinerea, please?
22

So what inhibition of growth at […] did CC(O)(Cn1cncn1)c1ccc(Oc2ccc(Cl)cc2)cc1Cl (centres unmarked) get with Botrytis cinerea?
0

// lookup inhibition of growth at […] | system=Botrytis cinerea | key= CC(O)(Cn1cncn1)c1ccc(Oc2ccc(F)cc2)cc1Cl (centres unmarked)
13

Query inhibition of growth at […] on Botrytis cinerea for COCC(O)(Cn1cncn1)c1ccc(Oc2ccc(Cl)cc2)cc1Cl (centres unmarked)
44

***
# returns recorded inhibition of growth at […] (system: Botrytis cinerea) for COC(C)(Cn1cncn1)c1ccc(Oc2ccc(Cl)cc2)cc1Cl (centres unmarked)
16

Missing value: inhibition of growth at […], Botrytis cinerea, entry CCC(Cn1cncn1)(OC)c1ccc(Oc2ccc(Cl)cc2)cc1Cl (centres unmarked) . Fill in?
18

---

inhibition of growth at 1 ppm for assorted compounds
# Test system: Botrytis cinerea
# Assay name: Microtiterplate test against the grey mold Botrytis cinerea (Botrci)
# Format: cell-based
# Settings: Botrytis cinerea, 168 h; solo product, 1 ppm; read-out: Observed efficacy
Write the number in % without appending the unit.

The examples below pair each entry with its known result.
Notebook entry, Botrytis cinerea assay: inhibition of growth at 1 ppm of CCCC(Cn1cncn1)(OC)c1ccc(Oc2ccc(Cl)cc2)cc1Cl (stereo not shown) = ?
34

Lab note: need inhibition of growth at 1 ppm with Botrytis cinerea for entry N#Cc1c(Cl)c(Cl)c(Cl)c(C#N)c1Cl [II-11, chlorothalonil, reference compound] , please look it up.
23

Please state recorded inhibition of growth at 1 ppm (tested on Botrytis cinerea) of CO/N=C(/C1=NOCCO1)c1ccccc1Oc1ncnc(Oc2ccccc2Cl)c1F [II-37, fluoxastrobin, reference compound]
5

# next compound below
API: value(readout= inhibition of growth at 1 ppm, system= Botrytis cinerea, query= COC(C)(Cn1cncn1)c1ccc(Oc2ccc(Cl)cc2)cc1Cl (stereo not shown) )
58
